Target: T1, PD-1 molecule (refolded, purified and biotinylated PD-1 of Example 2) (UniProt Q15116 33-150, biotinylated with BirA enzyme (site not stated))
T1 construct: also called Programmed Death-1
T1 sequence (Q15116 33-150 limits assumed): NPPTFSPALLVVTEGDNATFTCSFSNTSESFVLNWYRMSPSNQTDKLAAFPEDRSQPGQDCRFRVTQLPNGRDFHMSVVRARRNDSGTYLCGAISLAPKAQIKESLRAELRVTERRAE
Assay: SPR (BIAcore T200), single-cycle kinetics; biotinylated PD-1 captured via streptavidin, PDL-1 variant in solution
For each entry below, report its koff value.
// note: answer is a bare numeric in s⁻¹

Q: Which value of koff has been reported for high affinity PDL-1 molecule L22C7 (ligand) FTVTVPKDLYVVEYGSNMTIECKFPVEKQLDLAALEVHWFMEDKNIISFVHGEEDLKVQHSSYRQRARLLKDQLSLGNAALQITDVKLQDAGVYRCMISYGGADYKRITVKVNAPYNKINQRILVVDPVTSEHELTCQAEGYPKAEVIWTSSDHQVLSGKTTTTNSKREEKLFNVTSTLRINTTTNEIFYCTFRRLDPEENHTAELVIPEL in the records?
Ans: 0.133

Q: Which value of koff has been reported for high affinity PDL-1 molecule L2H3 (ligand) FTVTVPKDLYVVEYGSNMTIECKFPVEKQLDLAALQVHWFMEDKNILSFVHGEEDLKVQHSSYRQRARLLKDQLSLGNAALQITDVKLQDAGVYRCMISYGGADYKRITVKVNAPYNKINQRILVVDPVTSEHELTCQAEGYPKAEVIWTSSDHQVLSGKTTTTNSKREEKLFNVTSTLRINTTTNEIFYCTFRRLDPEENHTAELVIPEL in the records?
Ans: 0.153
